Taken from paper PMC11219871.

// HDAC5 (Homo sapiens, UniProt Q9UQL6) IC50 records
Write the quantity with the unit trailing the number.

COc1cc2nc(-c3cc(C)oc3C)cc(NCC3CCN(c4ncc(C(=O)NO)cn4)CC3)c2cc1OC :: 270 nM

From here, focus on the item given below.
Report IC50 for COc1cc2nc(-c3ccc(C)o3)cc(NCC3CCN(c4ncc(C(=O)NO)cn4)CC3)c2cc1OC tested on HDAC5 (Homo sapiens, UniProt Q9UQL6).
Sequence (Q9UQL6 whole entry): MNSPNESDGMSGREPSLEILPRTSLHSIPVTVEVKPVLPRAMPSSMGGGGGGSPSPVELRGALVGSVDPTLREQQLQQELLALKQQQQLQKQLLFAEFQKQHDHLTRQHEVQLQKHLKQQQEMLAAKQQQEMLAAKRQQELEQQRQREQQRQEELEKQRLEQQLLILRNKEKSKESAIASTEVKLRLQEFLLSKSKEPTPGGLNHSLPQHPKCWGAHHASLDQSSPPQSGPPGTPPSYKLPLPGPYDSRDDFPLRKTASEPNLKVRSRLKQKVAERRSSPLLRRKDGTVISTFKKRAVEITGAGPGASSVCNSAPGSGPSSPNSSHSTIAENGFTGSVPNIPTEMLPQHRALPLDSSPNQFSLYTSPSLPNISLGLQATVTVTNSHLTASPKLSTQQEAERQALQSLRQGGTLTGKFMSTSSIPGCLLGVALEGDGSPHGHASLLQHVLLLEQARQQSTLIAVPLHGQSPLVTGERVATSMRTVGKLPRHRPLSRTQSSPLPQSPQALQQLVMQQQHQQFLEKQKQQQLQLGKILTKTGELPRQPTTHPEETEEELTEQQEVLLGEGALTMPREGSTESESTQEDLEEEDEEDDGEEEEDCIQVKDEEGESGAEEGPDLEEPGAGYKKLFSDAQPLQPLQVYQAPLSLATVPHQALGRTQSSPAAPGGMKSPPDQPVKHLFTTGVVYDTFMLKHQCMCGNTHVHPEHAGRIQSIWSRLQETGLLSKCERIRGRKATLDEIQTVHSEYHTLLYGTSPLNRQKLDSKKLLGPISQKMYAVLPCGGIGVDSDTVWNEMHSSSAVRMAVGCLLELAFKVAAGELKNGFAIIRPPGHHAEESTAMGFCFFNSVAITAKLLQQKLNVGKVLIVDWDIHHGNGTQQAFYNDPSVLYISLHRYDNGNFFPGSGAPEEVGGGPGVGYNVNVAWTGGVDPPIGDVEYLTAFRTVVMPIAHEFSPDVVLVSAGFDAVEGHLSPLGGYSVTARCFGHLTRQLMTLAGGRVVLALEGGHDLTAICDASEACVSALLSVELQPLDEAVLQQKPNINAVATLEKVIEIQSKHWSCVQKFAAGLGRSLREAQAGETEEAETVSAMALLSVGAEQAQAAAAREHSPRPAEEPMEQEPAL
59 nM

====

half-life at 1 µM values for the compounds below.
- Protocol: Cryopreserved hepatocyte stability
- Type: in vitro ADME
- Experimental setup: cryopreserved hepatocytes, Human, read-out: Liver Hepatocytes Estimation T1/2
Your answer should be a plain number; it is taken to be in h.

COc1cc2nc(-c3ccc(C)o3)cc(NCC3CCN(c4ncc(C(=O)NO)cn4)CC3)c2cc1OC :: 1.18

Query (compound): COc1cc2nc(-c3cc(C)oc3C)cc(NCC3CCN(c4ncc(C(=O)NO)cn4)CC3)c2cc1OC ; field requested: half-life at 1 µM
1.53
